Target: F508delCFTR (Homo sapiens, UniProt P13569, DEL508-508)
Construct: expressed in transfected cells; host or cells: CFBE41o- human lung-derived epithelial cells (CFBE4lo-F508delCFTR-HRP), doxycycline-inducible
Sequence (P13569 with tags, fused parts or gaps DEL508-508): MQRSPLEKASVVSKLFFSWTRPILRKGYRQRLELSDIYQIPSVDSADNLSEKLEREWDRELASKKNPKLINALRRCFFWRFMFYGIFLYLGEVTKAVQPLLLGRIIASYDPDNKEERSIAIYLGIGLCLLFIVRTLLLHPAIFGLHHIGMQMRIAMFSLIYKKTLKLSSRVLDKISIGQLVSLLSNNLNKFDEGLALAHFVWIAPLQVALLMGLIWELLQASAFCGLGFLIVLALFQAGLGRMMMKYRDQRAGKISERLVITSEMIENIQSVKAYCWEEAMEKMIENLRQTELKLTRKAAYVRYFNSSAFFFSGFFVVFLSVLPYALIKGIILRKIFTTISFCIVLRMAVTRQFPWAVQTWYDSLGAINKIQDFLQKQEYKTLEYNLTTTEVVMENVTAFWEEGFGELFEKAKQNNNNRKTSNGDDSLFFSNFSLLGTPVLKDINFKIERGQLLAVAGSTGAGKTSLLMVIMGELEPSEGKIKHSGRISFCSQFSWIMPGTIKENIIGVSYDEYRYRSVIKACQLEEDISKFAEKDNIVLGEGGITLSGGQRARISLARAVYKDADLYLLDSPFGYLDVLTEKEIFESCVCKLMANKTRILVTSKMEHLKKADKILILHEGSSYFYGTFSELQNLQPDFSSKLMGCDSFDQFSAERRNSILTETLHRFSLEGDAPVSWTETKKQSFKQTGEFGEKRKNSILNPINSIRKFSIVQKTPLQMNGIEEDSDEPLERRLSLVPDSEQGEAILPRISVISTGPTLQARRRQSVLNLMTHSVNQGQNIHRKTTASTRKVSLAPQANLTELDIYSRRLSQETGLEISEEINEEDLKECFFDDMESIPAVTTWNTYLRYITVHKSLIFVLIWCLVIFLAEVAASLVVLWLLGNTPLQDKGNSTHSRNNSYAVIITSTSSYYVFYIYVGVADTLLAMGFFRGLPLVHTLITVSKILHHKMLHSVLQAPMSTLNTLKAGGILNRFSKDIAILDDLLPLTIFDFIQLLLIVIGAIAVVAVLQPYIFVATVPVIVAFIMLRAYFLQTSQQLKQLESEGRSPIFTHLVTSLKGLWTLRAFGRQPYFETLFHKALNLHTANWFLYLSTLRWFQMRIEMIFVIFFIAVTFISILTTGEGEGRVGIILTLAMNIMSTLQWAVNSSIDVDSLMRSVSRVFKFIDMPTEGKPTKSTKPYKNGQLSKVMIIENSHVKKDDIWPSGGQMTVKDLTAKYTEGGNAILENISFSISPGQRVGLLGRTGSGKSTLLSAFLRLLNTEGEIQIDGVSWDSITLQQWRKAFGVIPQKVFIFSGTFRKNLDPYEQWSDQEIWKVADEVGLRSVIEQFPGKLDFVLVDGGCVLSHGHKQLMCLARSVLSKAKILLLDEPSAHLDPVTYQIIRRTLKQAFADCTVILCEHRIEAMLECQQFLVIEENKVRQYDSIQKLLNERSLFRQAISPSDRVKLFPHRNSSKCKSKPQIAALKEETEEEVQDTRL
Test: Cell Surface Expression-Horse Radish Peroxidase (CSE-HRP) Assay
Assay type: cell-based
Settings: CSE-HRP; with co-corrector (2 μM of 3-[(2R,4R)-4-({[1-(2,2-difluoro-1,3-benzodioxol-5-yl)cyclopropyl]carbonyl}amino)-7-methoxy-3,4-dihydro-2H-chromen-2-yl]benzoic acid); read-out: EC50 (with co-corrector)
Method: Cell Surface Expression-Horse Radish Peroxidase (CSE-HRP) Assay The development was achieved by expressing the F508delCFTR mutation along with a horseradish peroxidase (HRP) in the fourth exofacial loop, and then measuring the HRP activity using luminescence readout from these cells, CFBE4lo-F508delCFTR-HRP, that were incubated overnight with the test corrector compounds, either without or with the co-corrector. […] The raw counts from the experiment were analyzed using Accelrys® Assay Explorer v3.3. […]
Documented EC50 across a set of molecules

See these solved cases before continuing.
1. COc1cc(C(F)(F)F)ccc1CN[C@H]1[C@H](C(C)(C)C)[C@@H](C(=O)O)N(C(=O)C2CCCCC2)[C@H]1c1ccccc1OC (stereo in doubt)
< 1000 nM
2. COc1ccc(C(C)(C)C)cc1CN[C@H]1[C@H](C(C)(C)C)[C@@H](C(=O)O)N(C(=O)C[C@H]2OCCc3ccccc32)[C@H]1c1ccccc1
< 1000 nM
3. COc1ccc(C(C)(C)C)cc1CN[C@H]1[C@H](C(C)(C)C)[C@@H](C(=O)O)N(C(=O)Cc2cccnc2)[C@H]1c1ccccc1
1000 to 10000 nM
4. CCOc1cc2c(cc1CN[C@H]1[C@H](C(C)(C)C)[C@@H](C(=O)O)N(C(=O)C3CCCCC3)[C@H]1c1ccccc1)CCC2
1000 to 10000 nM
5. CC(C)(C)[C@@H]1[C@@H](NCc2cc(Cl)ccc2OC(F)F)[C@@H](c2ccccc2)N(C(=O)C2CCCCC2)[C@H]1C(=O)O (racemic)
1000 to 10000 nM

Query: Recorded EC50 for CCc1ccccc1[C@H]1[C@@H](NCc2cc(C3CCC3)cnc2OC)[C@H](C(C)(C)C)[C@@H](C(=O)O)N1C(=O)[C@@H]1CCCCO1 , please?
Reply: < 1000 nM

Query: Recorded EC50 for COc1ccc(C(C)(C)C)cc1CN[C@H]1[C@H](C(C)(C)C)[C@@H](C(=O)O)N(C(=O)C2CC3C=CC2C3)[C@H]1c1ccccc1 (stereo partly drawn) , please?
Reply: 1000 to 10000 nM

Query: Recorded EC50 for COc1ccc(C(F)(F)F)cc1CN[C@H]1[C@H](C(C)(C)C)[C@@H](C(=O)O)N(C(=O)[C@@H]2CCCCO2)[C@H]1c1cccc2c1OCC2 , please?
Reply: 1000 to 10000 nM

Query: Recorded EC50 for COc1ccc(OC(F)F)cc1CN[C@H]1[C@H](C(C)(C)C)[C@@H](C(=O)O)N(C(=O)C2CCCCC2)[C@H]1c1ccccc1 , please?
Reply: 1000 to 10000 nM

Query: Recorded EC50 for COc1cc(Cl)ccc1CN[C@@H]1[C@@H](C(C)(C)C)[C@H](C(=O)O)N(C(=O)OC(C)C)[C@@H]1c1ccccc1 (racemic) , please?
Reply: 1000 to 10000 nM

====

Molecular target: F508delCFTR (Homo sapiens, UniProt P13569, DEL508-508)
Construct: expressed in transfected cells; host or cells: CFBE41o- human lung-derived epithelial cells (CFBE4lo-F508delCFTR-HRP), doxycycline-inducible
Experiment: Cell Surface Expression-Horse Radish Peroxidase (CSE-HRP) Assay
Assay type: cell-based
Settings: CSE-HRP; test compound without co-corrector; read-out: EC50 (without co-corrector)
pEC50: −log10 of the molar value.
Documented pEC50 across a set of compounds

See these solved cases before continuing.
1. CCOc1ccc(Br)cc1CN[C@H]1[C@H](C(C)(C)C)[C@@H](C(=O)O)N(C(=O)OC(C)C)[C@H]1c1cccnc1N1CCC1 [Example I-274]
5.00 to 6.00
2. COc1ccc(-c2ccc(C)cc2)cc1CN[C@H]1[C@H](C(C)(C)C)[C@@H](C(=O)O)N(C(=O)C2CCCCC2)[C@H]1c1ccccc1 [II-249]
> 6.00
3. COc1cc(Cl)ccc1CN[C@H]1[C@H](C(C)(C)C)[C@@H](C(=O)O)N(C(=O)[C@H](OC)c2ccccc2)[C@H]1c1ccccc1 (relative stereo) [II-54]
5.00 to 6.00
4. COc1ccc(C(C)(C)C)cc1CN[C@H]1[C@H](C(C)(C)C)[C@@H](C(=O)O)N(S(=O)(=O)c2ccn(C)n2)[C@H]1c1ccccc1 [II-154]
5.00 to 6.00
5. COc1cc(C(C)(C)C)ccc1CN[C@H]1[C@H](C(C)(C)C)[C@@H](C(=O)O)N(C(=O)C2CCCCC2)[C@H]1c1cccnc1N(C)C [II-102]
5.00 to 6.00

Query: Recorded pEC50 for COc1ccc(C(C)(C)C)cc1CN[C@H]1[C@H](C(C)(C)C)[C@@H](C(=O)O)N(C(=O)Cc2cc(F)ccc2F)[C@H]1c1ccccc1 [II-202] , please?
Reply: > 6.00

====

Molecular target: F508delCFTR (Homo sapiens, UniProt P13569, DEL508-508)
Construct: expressed in transfected cells; host or cells: CFBE41o- human lung-derived epithelial cells (CFBE4lo-F508delCFTR-HRP), doxycycline-inducible
Assay: Cell Surface Expression-Horse Radish Peroxidase (CSE-HRP) Assay
Assay type: cell-based
Details: with co-corrector (2 μM of 3-[(2R,4R)-4-({[1-(2,2-difluoro-1,3-benzodioxol-5-yl)cyclopropyl]carbonyl}amino)-7-methoxy-3,4-dihydro-2H-chromen-2-yl]benzoic acid); read-out: EC50 (with co-corrector)
recorded-endpoint: EC50

See these solved cases before continuing.
1) COc1ccc(Cl)cc1CN[C@@H]1[C@@H](C)[C@H](C(=O)O)N(C(=O)N(C(C)C)C(C)C)[C@@H]1c1ccccc1 (racemic)
1 to 10 µM
2) COc1ccc(CN[C@@H]2[C@@H](C(C)(C)C)[C@H](C(=O)O)N(C(=O)C3CCCCC3)[C@@H]2c2ccccc2)c(OC)c1Cl (racemic)
< 1 µM

Query: Recorded EC50 for COc1ccc(C(C)(C)C)cc1CN[C@H]1[C@H](C(C)(C)C)[C@@H](C(=O)O)N(C(=O)[C@@H]2CCCCO2)[C@H]1c1ccccc1OC(F)F , please?
Reply: < 1 µM

====

Target: F508delCFTR (Homo sapiens, UniProt P13569, DEL508-508)
Construct: expressed in transfected cells; host or cells: CFBE41o- human lung-derived epithelial cells (CFBE4lo-F508delCFTR-HRP), doxycycline-inducible
Assay: Cell Surface Expression-Horse Radish Peroxidase (CSE-HRP) Assay;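 on Maximum % activity (without co-corrector): percent of the 2 µM on-plate positive control corrector response above DMSO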
Type: cell-based
Settings: test compound without co-corrector; maximum at any tested concentration, normalized to on-plate positive control; read-out: Maximum % activity (without co-corrector)
recorded-endpoint: Emax

See these solved cases before continuing.
1) COc1ncc(C(F)(F)F)cc1CN[C@H]1[C@H](C2(C)CC2)[C@@H](C(=O)O)N(C(=O)C2CCCCC2)[C@H]1c1ccccc1
< 100%
2) COc1cc2ccccc2cc1CN[C@H]1[C@H](C(C)(C)C)[C@@H](C(=O)O)N(C(=O)OC(C)C)[C@H]1c1cccnc1N(C)C
100 to 200%
3) COc1ncc(C2CCC2)cc1CN[C@H]1[C@H](C(C)(C)C)[C@@H](C(=O)O)N(C(=O)C2CC(C)CC(C)C2)[C@H]1c1ccccc1 (stereo partly drawn)
100 to 200%
4) COc1ccc(C(F)(F)F)c(CN[C@@H]2[C@@H](C(C)(C)C)[C@H](C(=O)O)N(C(=O)C3CCCCC3)[C@@H]2c2ccccc2)c1 (racemic)
< 100%
5) CC(C)(C)NC(=O)c1cncc(N[C@H]2[C@H](C(C)(C)C)[C@@H](C(=O)O)N(C(=O)C3CCCCC3)[C@H]2c2ccccc2)c1
< 100%

Query: Recorded Emax for COc1ccc(C(C)(C)C)cc1CN[C@H]1[C@H](C(C)(C)C)[C@@H](C(=O)O)N(C(=O)OC(C)C)[C@H]1c1cccnc1OC(C)C , please?
Reply: > 200%

Query: Recorded Emax for COc1ccc(C2(C(F)(F)F)CC2)cc1CN[C@H]1[C@H](C(C)(C)C)[C@@H](C(=O)O)N(C(=O)OC(C)C)[C@H]1c1cccnc1N(C)C , please?
Reply: > 200%

Query: Recorded Emax for COc1ccc(C(F)(F)F)cc1CN[C@H]1[C@H](C(C)(C)C)[C@@H](C(=O)O)N(C(=O)OC(C)C)[C@H]1c1ccccc1 , please?
Reply: > 200%

====

Documented Emax across a set of compounds
Target: F508delCFTR (Homo sapiens, UniProt P13569, DEL508-508)
Construct: expressed in transfected cells; host or cells: CFBE41o- human lung-derived epithelial cells (CFBE4lo-F508delCFTR-HRP), doxycycline-inducible
Experiment: Cell Surface Expression-Horse Radish Peroxidase (CSE-HRP) Assay;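 on Maximum % activity (without co-corrector): percent of the 2 µM on-plate positive control corrector response above DMSO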
Type: cell-based
Settings: CSE-HRP; without co-corrector; maximum at any tested concentration, normalized to on-plate positive control; read-out: Maximum % activity (without co-corrector)

1. COc1cc(C(F)(F)F)ccc1CN[C@H]1[C@H](C(C)(C)C)[C@@H](C(=O)O)N(C(=O)C2CCCCC2)[C@H]1c1ccccc1OC (stereo in doubt)
100 to 200%
2. COc1ccc(C(C)(C)C)cc1CN[C@H]1[C@H](C(C)(C)C)[C@@H](C(=O)O)N(C(=O)C2CCC(C#N)CC2)[C@H]1c1ccccc1 (stereo partly drawn)
100 to 200%

# ---- query compound ----
Query: Recorded Emax for COc1ccc(C(C)(C)C)cc1CN[C@H]1[C@H](C(C)(C)C)[C@@H](C(=O)O)N(C(=O)C2CC2c2ccc(F)cc2)[C@H]1c1ccccc1 (stereo partly drawn) , please?
Reply: > 200%

Reference source: patent US20180099931A1
